testSummary: Pharmacokinetic study after intravenous compound K (2 mg/kg) in SD rats: plasma, feces, urine
studyConditions: SD, rat, plasma, iv, 2 mg/kg
readout: half-life (h)
One number for each entry, in h.

Request: Give its half-life value. Item: CC(C)=CCCC(C)(OC1OC(CO)C(O)C(O)C1O)C1CCC2(C)C1C(O)CC1C3(C)CCC(O)C(C)(C)C3CCC12C (stereo not shown)
Result: 7.3

----------
testSummary: Pharmacokinetic study after intravenous compound K (2 mg/kg) in ICR mice: plasma, feces, urine
studyConditions: ICR, mouse, plasma, iv, 2 mg/kg
readout: C0

Request: Give its C0 value. Item: CC(C)=CCCC(C)(OC1OC(CO)C(O)C(O)C1O)C1CCC2(C)C1C(O)CC1C3(C)CCC(O)C(C)(C)C3CCC12C (stereo not shown)
Result: 400 ng/mL

----------
testSummary: Pharmacokinetics, biliary excretion and metabolism of compound K in bile cannulated and non-bile cannulated rats
Type: in vivo, SD rats
studyConditions: SD, rat, plasma, iv, 2 mg/kg, non-bile cannulated rat, compound K IV 2 mg/kg
Description: SD rats were randomly divided into two groups: the non-bile cannulated control group and the bile cannulated group. For the bile cannulated rats, the femoral artery, femoral vein, and bile duct were cannulated with polyethylene tubes (PE-50 and PE-10; Jungdo, Seoul, Korea) under light anesthesia with isoflurane. […] Compound K and PPD concentrations were analyzed using a modified LC-MS/MS method of Jin et al. with an Agilent 6430 triple quadrupole LC-MS/MS system (Agilent, Wilmington, DE, USA). […]
readout: half-life (h)
One number for each entry, in h.

Request: Give its half-life value. Item: CC(C)=CCCC(C)(OC1OC(CO)C(O)C(O)C1O)C1CCC2(C)C1C(O)CC1C3(C)CCC(O)C(C)(C)C3CCC12C (stereo not shown) [compound K]
Result: 2.4

----------
testSummary: Pharmacokinetics, biliary excretion and metabolism of compound K in bile cannulated and non-bile cannulated rats
Format: in vivo, SD rats
studyConditions: SD, rat, plasma, iv, 2 mg/kg, non-bile cannulated rat, compound K IV 2 mg/kg
readout: AUC(0-inf) (ng·h/mL)
One number for each entry, in ng·h/mL.

Request: Give its AUC(0-inf) value. Item: CC(C)=CCCC(C)(OC1OC(CO)C(O)C(O)C1O)C1CCC2(C)C1C(O)CC1C3(C)CCC(O)C(C)(C)C3CCC12C (stereo not shown)
Result: 517

----------
testSummary: Pharmacokinetics, biliary excretion and metabolism of compound K in bile cannulated and non-bile cannulated rats
Format: in vivo, SD rats
studyConditions: SD, rat, plasma, iv, 2 mg/kg, bile cannulated rat, compound K IV 2 mg/kg
readout: AUC(0-inf) (ng·h/mL)
Give bare numbers, in ng·h/mL.

Request: Give its AUC(0-inf) value. Item: CC(C)=CCCC(C)(OC1OC(CO)C(O)C(O)C1O)C1CCC2(C)C1C(O)CC1C3(C)CCC(O)C(C)(C)C3CCC12C (stereo not shown) [compound K]
Result: 235

----------
testSummary: Pharmacokinetic study after intravenous compound K (2 mg/kg) in SD rats: plasma, feces, urine
studyConditions: SD, rat, plasma, iv, 2 mg/kg
readout: MRT
Lab note: write values as number then unit, every time.

Request: Give its MRT value. Item: CC(C)=CCCC(C)(OC1OC(CO)C(O)C(O)C1O)C1CCC2(C)C1C(O)CC1C3(C)CCC(O)C(C)(C)C3CCC12C (stereo not shown)
Result: 8.9 h

----------
testSummary: Pharmacokinetics, biliary excretion and metabolism of compound K in bile cannulated and non-bile cannulated rats
Assay type: in vivo, SD rats
studyConditions: SD, rat, plasma, iv, 2 mg/kg, bile cannulated rat, compound K IV 2 mg/kg; read-out: C0 (initial plasma concentration)
Description: SD rats were randomly divided into two groups: the non-bile cannulated control group and the bile cannulated group. For the bile cannulated rats, the femoral artery, femoral vein, and bile duct were cannulated with polyethylene tubes (PE-50 and PE-10; Jungdo, Seoul, Korea) under light anesthesia with isoflurane. […] Compound K and PPD concentrations were analyzed using a modified LC-MS/MS method of Jin et al. with an Agilent 6430 triple quadrupole LC-MS/MS system (Agilent, Wilmington, DE, USA). […]
readout: C0 (ng/mL)
Give bare numbers, in ng/mL.

Request: Give its C0 value. Item: CC(C)=CCCC(C)(OC1OC(CO)C(O)C(O)C1O)C1CCC2(C)C1C(O)CC1C3(C)CCC(O)C(C)(C)C3CCC12C (stereo not shown)
Result: 436

----------
testSummary: Pharmacokinetic study after intravenous compound K (2 mg/kg) in SD rats: plasma, feces, urine
studyConditions: SD, rat, plasma, iv, 2 mg/kg
readout: AUC(0-inf) (ng·h/mL)
Give bare numbers, in ng·h/mL.

Request: Give its AUC(0-inf) value. Item: CC(C)=CCCC(C)(OC1OC(CO)C(O)C(O)C1O)C1CCC2(C)C1C(O)CC1C3(C)CCC(O)C(C)(C)C3CCC12C (stereo not shown)
Result: 670

----------
testSummary: Pharmacokinetic study after intravenous compound K (2 mg/kg) in SD rats: plasma, feces, urine
studyConditions: SD, rat, plasma, iv, 2 mg/kg
readout: C0 (ng/mL)
One number for each entry, in ng/mL.

Request: Give its C0 value. Item: CC(C)=CCCC(C)(OC1OC(CO)C(O)C(O)C1O)C1CCC2(C)C1C(O)CC1C3(C)CCC(O)C(C)(C)C3CCC12C (stereo not shown) [compound K]
Result: 75.3

----------
testSummary: Pharmacokinetic study after intravenous compound K (2 mg/kg) in SD rats: plasma, feces, urine
studyConditions: SD, rat, plasma, iv, 2 mg/kg
readout: Vd (L/kg)
Answers are plain numbers, in L/kg.

Request: Give its Vd value. Item: CC(C)=CCCC(C)(OC1OC(CO)C(O)C(O)C1O)C1CCC2(C)C1C(O)CC1C3(C)CCC(O)C(C)(C)C3CCC12C (stereo not shown)
Result: 31.8

----------
testSummary: Pharmacokinetic study after intravenous compound K (2 mg/kg) in ICR mice: plasma, feces, urine
studyConditions: ICR, mouse, plasma, iv, 2 mg/kg
readout: half-life

Request: Give its half-life value. Item: CC(C)=CCCC(C)(OC1OC(CO)C(O)C(O)C1O)C1CCC2(C)C1C(O)CC1C3(C)CCC(O)C(C)(C)C3CCC12C (stereo not shown)
Result: 11.4 h

----------
testSummary: Pharmacokinetic study after intravenous compound K (2 mg/kg) in ICR mice: plasma, feces, urine
studyConditions: ICR, mouse, plasma, iv, 2 mg/kg
readout: MRT (h)
Numbers only, in h.

Request: Give its MRT value. Item: CC(C)=CCCC(C)(OC1OC(CO)C(O)C(O)C1O)C1CCC2(C)C1C(O)CC1C3(C)CCC(O)C(C)(C)C3CCC12C (stereo not shown)
Result: 11.8
